molecular target: Cholinesterase (Equus caballus); assay: Potency index, ratio of rivastigmine IC50 to compound IC50 for equine serum BuChE
assay endpoint: Ratio IC50

Please review the entries below; each comes with its answer.
# smiles repr, Ratio IC50
records = [
    ("Cc1ccc(Cn2cc(CNc3c4c(nc5ccc(Cl)cc35)CCCC4)nn2)cc1", "2 to 140"),
    ("Fc1ccc(Cn2cc(CNc3c4c(nc5ccc(Cl)cc35)CCCC4)nn2)cc1", "2 to 140"),
    ("Clc1ccc2nc3c(c(NCc4cn(Cc5ccccc5)nn4)c2c1)CCCC3", "2 to 140"),
    ("Cc1ccc(Cn2cc(CNc3c4c(nc5cc(Cl)ccc35)CCCC4)nn2)cc1", "2 to 140"),
    ("Clc1ccc2c(NCc3cn(Cc4ccccc4)nn3)c3c(nc2c1)CCCC3", "2 to 140"),
]

Asked: I have this compound here, Clc1ccc(Cn2cc(CNc3c4c(nc5cc(Cl)ccc35)CCCC4)nn2)cc1 , and I need its recorded Ratio IC50.
Given back: 2 to 140

Asked: I have this compound here, Fc1ccc(Cn2cc(CNc3c4c(nc5cc(Cl)ccc35)CCCC4)nn2)cc1 , and I need its recorded Ratio IC50.
Given back: 2 to 140

Asked: I have this compound here, Fc1ccc(Cn2cc(CNc3c4c(nc5ccccc35)CCCC4)nn2)cc1 , and I need its recorded Ratio IC50.
Given back: 2 to 140

Asked: I have this compound here, COc1ccc(Cn2cc(CNc3c4c(nc5ccccc35)CCCC4)nn2)cc1 , and I need its recorded Ratio IC50.
Given back: 2 to 140

Asked: I have this compound here, COc1ccc(Cn2cc(CNc3c4c(nc5ccc(Cl)cc35)CCCC4)nn2)cc1 , and I need its recorded Ratio IC50.
Given back: 2 to 140

Asked: I have this compound here, COc1ccc(Cn2cc(CNc3c4c(nc5cc(Cl)ccc35)CCCC4)nn2)cc1 , and I need its recorded Ratio IC50.
Given back: 2 to 140

Asked: I have this compound here, Cc1ccc(Cn2cc(CNc3c4c(nc5ccccc35)CCCC4)nn2)cc1 , and I need its recorded Ratio IC50.
Given back: 2 to 140

Asked: I have this compound here, c1ccc(Cn2cc(CNc3c4c(nc5ccccc35)CCCC4)nn2)cc1 , and I need its recorded Ratio IC50.
Given back: 2 to 140

Asked: I have this compound here, Clc1ccc(Cn2cc(CNc3c4c(nc5ccccc35)CCCC4)nn2)cc1 , and I need its recorded Ratio IC50.
Given back: 2 to 140

Asked: I have this compound here, Clc1ccc(Cn2cc(CNc3c4c(nc5ccc(Cl)cc35)CCCC4)nn2)cc1 , and I need its recorded Ratio IC50.
Given back: 2 to 140

====

target: Cholinesterase (Equus caballus, UniProt P81908)
Sequence (P81908 whole entry): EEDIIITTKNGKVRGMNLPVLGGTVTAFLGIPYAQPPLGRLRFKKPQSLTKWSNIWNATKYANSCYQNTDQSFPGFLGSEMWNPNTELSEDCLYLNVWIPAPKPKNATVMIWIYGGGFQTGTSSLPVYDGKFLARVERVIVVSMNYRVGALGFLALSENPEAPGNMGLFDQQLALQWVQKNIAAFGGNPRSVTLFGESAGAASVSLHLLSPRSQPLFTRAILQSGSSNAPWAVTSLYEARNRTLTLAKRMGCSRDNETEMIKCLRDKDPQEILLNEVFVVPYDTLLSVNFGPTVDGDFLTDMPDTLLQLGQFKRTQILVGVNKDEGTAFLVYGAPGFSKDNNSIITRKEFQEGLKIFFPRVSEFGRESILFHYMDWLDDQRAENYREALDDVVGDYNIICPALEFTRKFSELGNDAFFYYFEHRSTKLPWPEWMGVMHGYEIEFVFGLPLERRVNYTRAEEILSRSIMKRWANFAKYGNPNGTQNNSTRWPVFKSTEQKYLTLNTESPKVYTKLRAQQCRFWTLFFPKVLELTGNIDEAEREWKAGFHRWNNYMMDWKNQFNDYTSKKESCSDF
assay endpoint: IC50 (nM)
Numeric answer only, unit nM assumed.

Please review the entries below; each comes with its answer.
# smiles repr, target or system, unit info, IC50
measured = [
    ("Cc1ccc(Cn2cc(CNc3c4c(nc5ccccc35)CCCC4)nn2)cc1", "Cholinesterase (Equus caballus, UniProt P81908)", "nM", 72),
    ("Fc1ccc(Cn2cc(CNc3c4c(nc5ccccc35)CCCC4)nn2)cc1", "Cholinesterase (Equus caballus, UniProt P81908)", "nM", 59),
    ("Clc1ccc2c(NCc3cn(Cc4ccccc4)nn3)c3c(nc2c1)CCCC3", "Cholinesterase (Equus caballus, UniProt P81908)", "nM", 197),
]

Asked: Enter reported IC50 observed with Cholinesterase (Equus caballus, UniProt P81908) for c1ccc(Cn2cc(CNc3c4c(nc5ccccc35)CCCC4)nn2)cc1
Given back: 180

Asked: Enter reported IC50 observed with Cholinesterase (Equus caballus, UniProt P81908) for Fc1ccc(Cn2cc(CNc3c4c(nc5cc(Cl)ccc35)CCCC4)nn2)cc1
Given back: 216

====

molecular target: Acetylcholinesterase (Electrophorus electricus, UniProt O42275)
Sequence (O42275 whole entry): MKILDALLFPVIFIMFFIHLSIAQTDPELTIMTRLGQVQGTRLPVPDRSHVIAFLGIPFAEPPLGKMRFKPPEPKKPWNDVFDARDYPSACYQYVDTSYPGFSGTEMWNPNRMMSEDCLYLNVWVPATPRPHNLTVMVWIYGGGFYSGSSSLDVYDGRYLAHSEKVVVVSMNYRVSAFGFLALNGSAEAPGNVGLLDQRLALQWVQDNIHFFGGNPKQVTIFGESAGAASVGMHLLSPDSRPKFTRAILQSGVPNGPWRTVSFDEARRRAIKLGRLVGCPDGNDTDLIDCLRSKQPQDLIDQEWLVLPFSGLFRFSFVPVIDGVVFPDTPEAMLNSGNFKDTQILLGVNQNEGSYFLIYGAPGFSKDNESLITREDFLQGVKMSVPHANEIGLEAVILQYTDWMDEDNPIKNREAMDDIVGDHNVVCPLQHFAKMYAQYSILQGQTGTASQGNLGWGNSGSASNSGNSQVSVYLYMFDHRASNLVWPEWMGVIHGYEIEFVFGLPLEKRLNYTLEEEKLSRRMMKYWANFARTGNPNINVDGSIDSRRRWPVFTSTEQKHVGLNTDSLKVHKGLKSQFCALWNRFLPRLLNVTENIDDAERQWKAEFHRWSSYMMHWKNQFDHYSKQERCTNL
assay endpoint: Ki (nM)
Numeric answer only, unit nM assumed.

Asked: Enter reported Ki observed with Acetylcholinesterase (Electrophorus electricus, UniProt O42275) for COc1ccc(Cn2cc(CNc3c4c(nc5ccc(Cl)cc35)CCCC4)nn2)cc1
Given back: 940

====

Measured log10 of IC50 (Cholinesterase (Equus caballus, UniProt P81908))
Lab note - IC50 converted to log10 from values in nM.

Please review the entries below; each comes with its answer.
# smiles repr, assay endpoint, endpoint value
records = [
    ("COc1ccc(Cn2cc(CNc3c4c(nc5ccccc35)CCCC4)nn2)cc1", "log10 of IC50", 1.74),
    ("COc1ccc(Cn2cc(CNc3c4c(nc5cc(Cl)ccc35)CCCC4)nn2)cc1", "log10 of IC50", 2.06),
    ("Cc1ccc(Cn2cc(CNc3c4c(nc5cc(Cl)ccc35)CCCC4)nn2)cc1", "log10 of IC50", 1.81),
]

Asked: I have this compound here, Fc1ccc(Cn2cc(CNc3c4c(nc5ccc(Cl)cc35)CCCC4)nn2)cc1 , and I need its recorded log10 of IC50.
Given back: 2.86

Asked: I have this compound here, Clc1ccc(Cn2cc(CNc3c4c(nc5ccc(Cl)cc35)CCCC4)nn2)cc1 , and I need its recorded log10 of IC50.
Given back: 3.60

Asked: I have this compound here, COc1ccc(Cn2cc(CNc3c4c(nc5ccc(Cl)cc35)CCCC4)nn2)cc1 , and I need its recorded log10 of IC50.
Given back: 3.27

Asked: I have this compound here, Clc1ccc(Cn2cc(CNc3c4c(nc5ccccc35)CCCC4)nn2)cc1 , and I need its recorded log10 of IC50.
Given back: 2.18

Asked: I have this compound here, Cc1ccc(Cn2cc(CNc3c4c(nc5ccc(Cl)cc35)CCCC4)nn2)cc1 , and I need its recorded log10 of IC50.
Given back: 2.87

====

biological target: Acetylcholinesterase (Electrophorus electricus, UniProt O42275)
Measured pIC50 by item
To interpret pIC50, take it as minus log10 of a concentration measured in moles per litre.

Please review the entries below; each comes with its answer.
# smiles repr, endpoint value
measured = [
    ("Cc1ccc(Cn2cc(CNc3c4c(nc5ccc(Cl)cc35)CCCC4)nn2)cc1", 6.11),
    ("Fc1ccc(Cn2cc(CNc3c4c(nc5ccc(Cl)cc35)CCCC4)nn2)cc1", 5.84),
    ("Clc1ccc(Cn2cc(CNc3c4c(nc5ccccc35)CCCC4)nn2)cc1", 5.71),
    ("Clc1ccc2nc3c(c(NCc4cn(Cc5ccccc5)nn4)c2c1)CCCC3", 5.62),
    ("c1ccc(Cn2cc(CNc3c4c(nc5ccccc35)CCCC4)nn2)cc1", 5.48),
]

Moving on to the next molecule.
Asked: Enter reported pIC50 observed with Acetylcholinesterase (Electrophorus electricus, UniProt O42275) for COc1ccc(Cn2cc(CNc3c4c(nc5ccccc35)CCCC4)nn2)cc1
Given back: 5.70

====

target: UniProtKB O42275
Binarize IC50 at 1000 nM; below is T, at or above is F.

Use the examples below as a reference point.
# smiles repr, label value
measured = [
    ("COc1ccc(Cn2cc(CNc3c4c(nc5cc(Cl)ccc35)CCCC4)nn2)cc1", "T"),
    ("Clc1ccc(Cn2cc(CNc3c4c(nc5ccc(Cl)cc35)CCCC4)nn2)cc1", "F"),
]

Asked: Does Fc1ccc(Cn2cc(CNc3c4c(nc5ccccc35)CCCC4)nn2)cc1 have IC50 strictly under 1000 nM?
Given back: F

Asked: Does Cc1ccc(Cn2cc(CNc3c4c(nc5cc(Cl)ccc35)CCCC4)nn2)cc1 have IC50 strictly under 1000 nM?
Given back: F

====

Measured pIC50 by item
system: T47D; experiment: cells; details: Homo sapiens, 72 h
Description: Cytotoxicity against human T47D cells assessed as reduction in cell viability after 72 hrs by MTT assay
To interpret pIC50, take it as minus log10 of a concentration measured in moles per litre.

# smiles repr, endpoint value
rows = [
    ("COc1ccc(Cn2cc(CNc3c4c(nc5ccccc35)CCCC4)nn2)cc1", 4.03),
    ("Fc1ccc(Cn2cc(CNc3c4c(nc5cc(Cl)ccc35)CCCC4)nn2)cc1", 4.10),
]

Asked: I have this molecule here, Clc1ccc2c(NCc3cn(Cc4ccccc4)nn3)c3c(nc2c1)CCCC3 , and I need its recorded pIC50.
Given back: 4.01

Asked: I have this molecule here, c1ccc(Cn2cc(CNc3c4c(nc5ccccc35)CCCC4)nn2)cc1 , and I need its recorded pIC50.
Given back: 4.20

====

Measured pIC50 (Acetylcholinesterase (Electrophorus electricus))
To interpret pIC50, take it as minus log10 of a concentration measured in moles per litre.

Please review the entries below; each comes with its answer.
# smiles repr, endpoint value
data = [
    ("Fc1ccc(Cn2cc(CNc3c4c(nc5cc(Cl)ccc35)CCCC4)nn2)cc1", 5.64),
    ("Clc1ccc2c(NCc3cn(Cc4ccccc4)nn3)c3c(nc2c1)CCCC3", 5.63),
    ("Cc1ccc(Cn2cc(CNc3c4c(nc5ccccc35)CCCC4)nn2)cc1", 6.21),
]

Asked: I have this molecule here, COc1ccc(Cn2cc(CNc3c4c(nc5ccc(Cl)cc35)CCCC4)nn2)cc1 , and I need its recorded pIC50.
Given back: 6.28
